# System: SN12C renal
# Assay Notes: NCI tumour cell line growth inhibition, 48 h
Listed here: items and their measured TGI.

[
  {
    "Compound": "CN(C)CCN1C(=O)c2c(c3c4ccccc4n4c3c3c2c2ccccc2n3C2CC(O)C(O)C4(C)O2)C1=O (stereo not drawn)",
    "TGI": "7.87 µM"
  },
  {
    "Compound": "CSc1nnc(CCC(=O)Nc2c(C)cccc2C)o1",
    "TGI": "> 100 µM"
  },
  {
    "Compound": "CCOC(=O)CCC(NC(=O)OCc1ccccc1)C(=O)NC(CCC(=O)OCC)C(=O)NC(CCC(=O)OCC)C(=O)NC(CCC(=O)OCC)C(=O)NC(CCC(=O)OCC)C(=O)NC(CCC(=O)OCC)C(=O)NC(CCC(=O)OCC)C(=O)OCC (stereo not drawn)",
    "TGI": "> 100 µM"
  },
  {
    "Compound": "COC(=O)C1(Cc2ccc3c(c2)CCC3)Cc2ccccc2C1O (stereo not drawn)",
    "TGI": "29.2 µM"
  },
  {
    "Compound": "O=C(C/C(=N/O)C(=O)NC1=C(Cl)C(=O)c2ccccc2C1=O)CC(c1ccccc1)c1c(O)c2ccccc2oc1=O (stereo not drawn)",
    "TGI": "23.5 µM"
  },
  {
    "Compound": "C=CCN=C(N/N=C/c1ccc([N+](=O)[O-])o1)NS(=O)(=O)c1cc(C(=O)Nc2ccc(Cl)cc2)c(Cl)cc1SC",
    "TGI": "> 100 µM"
  },
  {
    "Compound": "CN(C(=O)C12C3C4C1C1C2C3C41C(N)=O)C(C)(C)C (stereo not drawn)",
    "TGI": "> 100 µM"
  },
  {
    "Compound": "CCN(CC)N1C(=O)[N+](CC)(CC)N=C1[O-]",
    "TGI": "> 100 µM"
  },
  {
    "Compound": "COC(=O)c1cc(=O)[nH]c(=O)[nH]1",
    "TGI": "> 100 µM"
  },
  {
    "Compound": "Cc1cc(S(=O)(=O)N/C(=C(\\C#N)C(=O)c2ccc(Cl)cc2)[n+]2ccc(N(C)C)cc2)c([S-])cc1Cl",
    "TGI": "> 100 µM"
  },
  {
    "Compound": "COc1c(O)c(C=O)c2c(O)c(-c3c(C)cc4c(C(C)C)c(OC)c(O)c(C=O)c4c3O)c(C)cc2c1C(C)C",
    "TGI": "8.45 µM"
  },
  {
    "Compound": "Cc1ccc(C(N)=O)cc1N=NN(C)C",
    "TGI": "> 100 µM"
  },
  {
    "Compound": "COc1ccc2c(c1)C(=O)c1ccc(OC)cc1C2=S",
    "TGI": "> 100 µM"
  },
  {
    "Compound": "CC1=C(c2cccc(O)c2)[C@H](c2ccc(OCCN3CC(CF)C3)cc2)Oc2ccc(O)cc21",
    "TGI": "21.3 µM"
  },
  {
    "Compound": "O=C1C(c2ccccc2)=C(O)c2cccc3cccc1c23",
    "TGI": "> 100 µM"
  },
  {
    "Compound": "COc1cc2c[n+](C)c3c4cc(OC)c(OC(C)C)cc4ccc3c2cc1OC",
    "TGI": "> 100 µM"
  },
  {
    "Compound": "CCC1(c2ccccc2)Sc2ccccc2-n2cccc2C1=O (stereo not drawn)",
    "TGI": "> 10 µM"
  },
  {
    "Compound": "CC(=C(c1ccccc1)c1ccccc1)N1C(=O)CC(=O)N1C",
    "TGI": "> 100 µM"
  },
  {
    "Compound": "CCCCOC(=O)C(NC(C(=O)OCCCC)c1cc(C(C)(C)C)c(O)c(C(C)(C)C)c1)c1cc(C(C)(C)C)c(O)c(C(C)(C)C)c1 (stereo not drawn)",
    "TGI": "> 100 µM"
  },
  {
    "Compound": "C=C[C@@H](C)[C@H](NS(=O)(=O)c1ccc(C)cc1)C(=O)OCC",
    "TGI": "> 100 µM"
  },
  {
    "Compound": "CC1CCCC2(CC[N+](C)(CCC[N+](C)(C)C)CC2)C1 (stereo not drawn)",
    "TGI": "> 100 µM"
  },
  {
    "Compound": "CC(CN(C)C)/C(=N\\Nc1ccccc1)c1ccccc1 (stereo not drawn)",
    "TGI": "> 100 µM"
  },
  {
    "Compound": "CCOc1ccc(N/C(=C(/C(Cl)=C(/Cl)N(CC)CC)[N+](=O)[O-])n2nnc3ccccc32)cc1",
    "TGI": "49.6 µM"
  }
]
